System: Human Myelin PLP
Test: Phage display library screening (Example 2, Python script analysis), binding to Human Myelin PLP
Conditions: combined unique sequence count, Python/R script analysis
Description: Phage display library screens were used to identify peptides that bind to target proteins (including specific laminin trimers) that are expressed in human nerves, as described in Table 3. These screens were also carried out to identify peptides that could bind selectively to nerves versus muscle. Such peptides could therefore be useful for systemic in-vivo labeling of nerves during fluorescence assisted surgery. […]
quantity_name: Count

> print(dat)
                                 substance      study.target  result
1  FKMPIPT (R3 Myelin PLP-binding peptide)  Human Myelin PLP      34
2     QLPRNNL (Myelin PLP-binding peptide)  Human Myelin PLP      28
3     GHLQSLF (Myelin PLP-binding peptide)  Human Myelin PLP      26
4     IDRVRGL (Myelin PLP-binding peptide)  Human Myelin PLP      29
5     GLWGPSL (Myelin PLP-binding peptide)  Human Myelin PLP      26
6     MKIMPMD (Myelin PLP-binding peptide)  Human Myelin PLP      26
7  GLIRHYT (R3 Myelin PLP-binding peptide)  Human Myelin PLP      66
8     SGVATYT (Myelin PLP-binding peptide)  Human Myelin PLP      31
9     EPSSFTF (Myelin PLP-binding peptide)  Human Myelin PLP      31
